Recorded melting point, one value per entry.

For orientation, consider the following solved cases.
# record_smiles, melting point
measured = [
    ("COC(=O)c1ccc(CN2CCC[C@H](N(Cc3cc(C(F)(F)F)cc(C(F)(F)F)c3)c3nnn(C)n3)c3cc(C)c(C(F)(F)F)cc32)cc1", "71 to 74 °C (dec.)"),
    ("COC(=O)c1cccc(CN2CCC[C@H](N(Cc3cc(C(F)(F)F)cc(C(F)(F)F)c3)c3nnn(C)n3)c3cc(C)c(C(F)(F)F)cc32)c1", "62 to 65 °C (dec.)"),
    ("Cc1cc2c(cc1C(F)(F)F)N(c1ccc(C(=O)O)cc1)CCC[C@@H]2N(Cc1cc(C(F)(F)F)cc(C(F)(F)F)c1)c1nnn(C)n1", "101 to 105 °C"),
    ("Cc1cc2c(cc1C(F)(F)F)N(Cc1ccc(C(=O)O)cc1)CCC[C@@H]2N(Cc1cc(C(F)(F)F)cc(C(F)(F)F)c1)c1nnn(C)n1", "95 to 98 °C"),
]

Please find the next compound below.
Complete the entry with melting point for Cc1cc2c(cc1C(F)(F)F)N(Cc1cccc(C(=O)O)c1)CCC[C@@H]2N(Cc1cc(C(F)(F)F)cc(C(F)(F)F)c1)c1nnn(C)n1 83 to 86 °C
